System: T47D cells
PROCEDURE_SUMMARY: Alamar Blue cell viability assay, T47D
Type: cell-based, human
TEST_CONDITIONS: T47D cell viability, Alamar Blue
Procedure: The goal herein was to assess the ability of imidazopyridine-tethered pyrazolines to inhibit cell viability in mammary carcinoma cells (using the Alamar Blue assay), since pyridine-fused pyrazoles were previously shown to inhibit cell viability in various breast cancer cells. […] MCF-7 cells were procured from Procell Life Science and Technology Co. LTD, Wuhan, China. […] Using Alamar Blue, the compounds were evaluated for their inhibitory effects
Entries and their IC50
MEASURED_ENDPOINT: IC50

> print(dat)
                                   compound  measured.endpoint  observed.measurement
1  Cc1ccc2nc(C)c(C3=NN(C(=S)Nc4ccccc4)C(c4cccc([N+](=O)[O-])c4)C3)n2c1 (stereo not shown) [Compound 4a]               IC50              > 100 µM
2  Cc1ccc2nc(C)c(C3=NN(C(=S)NC4CCCCC4)C(c4cccc([N+](=O)[O-])c4)C3)n2c1 (stereo not shown) [Compound 4c]               IC50              > 100 µM
3  Cc1ccc(NC(=S)N2N=C(c3c(C)nc4ccc(C)cn34)CC2c2cccc([N+](=O)[O-])c2)cc1 (stereo not shown) [Compound 4f]               IC50              > 100 µM
4  Cc1ccc2nc(C)c(C3=NN(C(=S)Nc4cccc(Cl)c4)C(c4cccc([N+](=O)[O-])c4)C3)n2c1 (stereo not shown) [Compound 4e]               IC50              > 100 µM
